Ref: ChEMBL document CHEMBL1148352

- target under test: Adenosine receptor A3 (Homo sapiens, UniProt P0DMS8)
- Sequence (P0DMS8 whole entry): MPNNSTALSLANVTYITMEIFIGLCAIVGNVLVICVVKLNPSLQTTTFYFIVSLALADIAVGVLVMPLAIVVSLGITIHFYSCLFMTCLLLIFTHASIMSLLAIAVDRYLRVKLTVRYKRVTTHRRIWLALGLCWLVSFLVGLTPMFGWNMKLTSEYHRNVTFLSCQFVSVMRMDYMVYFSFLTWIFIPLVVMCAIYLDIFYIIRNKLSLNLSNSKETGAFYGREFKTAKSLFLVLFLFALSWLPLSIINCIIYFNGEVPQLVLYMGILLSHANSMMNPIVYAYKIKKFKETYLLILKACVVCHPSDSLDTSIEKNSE
- measurement protocol: Effective concentration for inhibition of NECA-stimulated [35S]GTP-gamma-S, binding at human adenosine A3 receptor expressed in CHO cells
recorded metric: pEC50
# log scale: pEC50 equals minus log10 of the concentration in mol/L

The recorded pEC50 for `O=c1[nH]c2ccccc2n2c(=O)n(-c3ccc([N+](=O)[O-])cc3)nc12` is 8.27

====

Quick reference for I among some compounds
- target under test: UniProt:P28190
- measurement protocol: Inhibition of [3H]CHA binding to adenosine A1 receptor of bovine brain membranes
- Format: cell membranes
Write the answer as a number in %, unit excluded.

Use the examples below as a reference point.
compound: CC(=O)Oc1ccc(-n2nc3c(=O)[nH]c4c([N+](=O)[O-])cccc4n3c2=O)cc1
I [%]: 21.3

compound: COc1ccc(-n2nc3c(N)nc4c([N+](=O)[O-])cccc4n3c2=O)cc1
I [%]: 19

compound: Nc1nc2ccccc2n2c(=O)n(-c3ccc([N+](=O)[O-])cc3)nc12
I [%]: 11.9

compound: COc1ccc(-n2nc3c(=O)[nH]c4c(N)cccc4n3c2=O)cc1
I [%]: 16

Now look at this one.
I recorded for this compound, `COc1ccc(-n2nc3c(=O)[nH]c4c([N+](=O)[O-])cccc4n3c2=O)cc1` , is 25

====

Protein target, amino acids: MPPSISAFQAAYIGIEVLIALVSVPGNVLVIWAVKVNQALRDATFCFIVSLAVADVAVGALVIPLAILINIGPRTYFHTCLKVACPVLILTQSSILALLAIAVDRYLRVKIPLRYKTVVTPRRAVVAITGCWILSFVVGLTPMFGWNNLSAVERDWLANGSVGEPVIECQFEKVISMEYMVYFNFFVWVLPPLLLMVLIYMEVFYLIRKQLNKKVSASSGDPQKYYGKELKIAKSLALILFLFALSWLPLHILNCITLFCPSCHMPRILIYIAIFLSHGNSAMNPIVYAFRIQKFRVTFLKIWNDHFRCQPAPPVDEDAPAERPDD
Catalogue of pKi readings, one per entry.
# log scale: pKi equals minus log10 of the concentration in mol/L

Past entries and their recorded results:
compound: CN(C)c1ccc(-n2nc3c(=O)[nH]c4ccccc4n3c2=O)cc1
result value: 6.24
--
compound: Nc1nc2c([N+](=O)[O-])cccc2n2c(=O)n(-c3ccc(O)cc3)nc12
result value: 6.35
--
compound: Nc1cccc2c1[nH]c(=O)c1nn(-c3ccc(O)cc3)c(=O)n12
result value: 6.00
--
compound: O=c1[nH]c2ccccc2n2c(=O)n(-c3ccc(O)cc3)nc12
result value: 7.51
--
compound: O=c1[nH]c2c([N+](=O)[O-])cccc2n2c(=O)n(-c3ccc([N+](=O)[O-])cc3)nc12
result value: 7.04

Could you now consider this next molecule?
pKi reading for `Nc1ccc(-n2nc3c(N)nc4ccccc4n3c2=O)cc1` : 7.32

====

Each entry below carries its recorded I.
- target under test: Adenosine receptor A1 (Homo sapiens) (UniProt P30542)
- Sequence (P30542 whole entry): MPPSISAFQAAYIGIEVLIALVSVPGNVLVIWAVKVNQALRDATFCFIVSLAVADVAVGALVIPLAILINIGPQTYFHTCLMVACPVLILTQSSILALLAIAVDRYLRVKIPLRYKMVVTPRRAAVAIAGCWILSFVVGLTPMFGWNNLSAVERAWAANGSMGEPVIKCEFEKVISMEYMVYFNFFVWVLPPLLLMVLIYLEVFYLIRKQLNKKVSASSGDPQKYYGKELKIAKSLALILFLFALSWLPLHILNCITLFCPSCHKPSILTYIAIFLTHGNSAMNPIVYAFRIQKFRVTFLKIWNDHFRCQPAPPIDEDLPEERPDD
- measurement protocol: Percent inhibition against human adenosine A1 receptor expressed in CHO cells using [3H]CHA at 10 uM
- Format: cell-based
Write the value in % as a bare number.

compound: COc1ccc(-n2nc3c(N)nc4c([N+](=O)[O-])cccc4n3c2=O)cc1
I [%]: 45
//
compound: COc1ccc(-n2nc3c(=O)[nH]c4c([N+](=O)[O-])cccc4n3c2=O)cc1
I [%]: 0
//
compound: COc1ccc(-n2nc3c(=O)[nH]c4ccccc4n3c2=O)cc1
I [%]: 42

Kindly note the recorded I for `O=c1[nH]c2ccccc2n2c(=O)n(-c3ccc([N+](=O)[O-])cc3)nc12` , which is 32
